- Species: Rattus norvegicus
- assay-comment: Open TG-GATES - Regimen: Single
- Assay type: toxicity, organism-based, Sprague-Dawley
- Set-up: regimen Single, gender Male, age 6 weeks
- test-settings: in vivo, po, 300 mg/kg, 6 h, tissue Blood, route gavage, dose level Middle
recorded-metric: Fbg (mg/dL)
Field format: number, assumed mg/dL, no unit text.

In the examples that follow, each entry is paired with its recorded Fbg.
[[record]]
query_smiles = "O=C(OC[C@H]1O[C@@H](OC(=O)c2cc(O)c(O)c(OC(=O)c3cc(O)c(O)c(O)c3)c2)[C@H](OC(=O)c2cc(O)c(O)c(OC(=O)c3cc(O)c(O)c(O)c3)c2)[C@@H](OC(=O)c2cc(O)c(O)c(OC(=O)c3cc(O)c(O)c(O)c3)c2)[C@@H]1OC(=O)c1cc(O)c(O)c(OC(=O)c2cc(O)c(O)c(O)c2)c1)c1cc(O)c(O)c(OC(=O)c2cc(O)c(O)c(O)c2)c1"
measurement_units = "mg/dL"
recorded_number = 214.4

[[record]]
query_smiles = "COC(=O)C1=C(C)NC(C)=C(C(=O)OC)C1c1ccccc1[N+](=O)[O-]"
measurement_units = "mg/dL"
recorded_number = 293.2

[[record]]
query_smiles = "CN/C(=N/CCSCc1nc[nH]c1C)NC#N"
measurement_units = "mg/dL"
recorded_number = 224

[[record]]
query_smiles = "Cc1nnc2n1-c1ccc(Cl)cc1C(c1ccccc1Cl)=NC2"
measurement_units = "mg/dL"
recorded_number = 282.8


May I ask what Fbg has been recorded for CNC(=C[N+](=O)[O-])NCCSCc1ccc(CN(C)C)o1 ?
220.8
